- Test Target: RBD-mFc (UniProt P0DTC2 319-591)
- Measurement Notes: ELISA
Measured Endpoint: pEC50
The scale used: pEC50 is minus the common logarithm of the concentration in molar units.

// lookup pEC50 for STE72-2G4 (antibody, V domains shown) VH: QVQLVQSGAEVKKPGASVKVSCKASGYTFTSYGISWVRQAPGQGLEWMGWISAYNGNTNYAQKLQGRVTMTTDTSTSTAYMELRSLRSDDTAVYYCARFFYDSSGYSTDYWGQGTLVTVSS VL: ETTLTQSPAFMSVTPGDRAILSCRASQSVDSHLAWYHQKPGQPPRLLIYGASTRATGIPARFSGSRSGTEFTLTISGLQSEDLGVYYCQQYASWPPGYNFGQGTKLEIK
9.15
